Attribution: patent US20250382355A1

Give measured pKd for each item. Keep answers brief.
Biological target: SARS-CoV-2 prefusion-stabilized spike protein (SARS-CoV-2-PreS) (SARS-CoV-2, UniProt P0DTC2 14-1208)
Test: Biacore, apparent affinity
When answering, recall that pKd equals minus log10 of the concentration in mol/L, and write that number alone.

QUERY: Requested read-out: pKd. Entry: 7A9 VHH (VHH) VHH: QVQLVESGGGLVQAGGSLRLSCSASGGTASRSAMGWFRQAPGKEREFVAGISRRNSGSTYVADSYEDSVKGRFTISRDNAKNTIYLQMNSLKPEDTAVYYCAAEPTLGWYVPRRSVEYEYWGQGTQVTVSS
RESULT: 9.66

QUERY: Same thing, different binder: 5G11 VHH-Fc (Fc fusion) QVQLVESGGGLVQAGGSLRLSCAASGRTFSIYAVGWFRQAPGKERDFVAGITWSGGTTYYSDSVKGRFTISRDNAKNTVYLQMNNLKPEDTAIYYCAVDTYSMTLSARSYDYWGQGTQVTVSS
RESULT: 8.82

QUERY: Same thing, different binder: 14F3 VHH (VHH) VHH: QVQLVESGGGLVQAGGSLRLSCAASGRTSSIYGVGWFRQAPGKERELVALITWSGGTTYYSDSVKGRFTISKDNAKNTVFLQMNNLKPEDTAIYYCAVDTYSMTMSARDYEYWGQGTQVTVSS
RESULT: 8.52

QUERY: Same thing, different binder: 5A6 VHH (VHH) VHH: QVQLVESGGGLAQAGGSLRLSCATSGLTFSMSAMGWFRQAPGNEREFVGVINWNGGSSRYADSVRGRFTISRDNAKNTVYLQMNSLKPEDTGVYYCAADALNIGTGEVNPRLYDYWGQGTQVMVSS
RESULT: 9.34
